Source: paper PMC12980303

Test: risk score from prevalence in routine forensic samples and intoxication cases (G1, PSS, TSS)
Set-up: species or system human
Settings: proportion in intoxication cases relative to prevalence in routine serum/blood and urine samples per quarter, 2013–2021; >1 over‐represented in intoxications
// classify: if (G1 < 1) 1 else -1

Task: Say whether its G1 is strictly beneath 1. Entry: CC(C)(c1ccccc1)n1ccc2c(c1=O)c1ccccc1n2CCCCCF
Result: 1

Task: # TODO verify G1 < 1 strictly for this compound: CCCCCn1cc(C(=O)c2ccc(CC)c3ccccc23)c2ccccc21
Result: -1

Task: Please indicate whether the reported G1 of O=C(Oc1cccc2cccnc12)c1cn(CCCCCF)c2ccccc12 is strictly below 1.
Result: -1

Task: Field: below-cutoff. Rule: recorded G1 strictly less than 1. Subject: COC(=O)C(NC(=O)c1cn(CCCCCF)c2ccccc12)C(C)(C)C (centres unmarked)
Result: -1

Task: Identify whether the compound COC(=O)C(NC(=O)c1nn(CCCCCF)c2ccccc12)C(C)(C)C (centres unmarked) records G1 below 1.
Result: -1

----------
Experiment: occurrence of SCRAs in intoxication samples of the prospective study
Design: species or system human
Conditions: 139 intoxication samples of the prospective study, 2013 to 2021
Binary call on No. of intoxications with cut-off 20: strictly below means true (1), and equality or higher means false (0).

Task: Dear reviewer, please state whether COC(=O)C(NC(=O)c1cn(CCCCCF)c2ccccc12)C(C)(C)C (centres unmarked) has No. of intoxications strictly beneath 20.
Result: true (1)

Task: Threshold test, No. of intoxications < 20: COC(=O)C(NC(=O)c1cn(CCCCF)c2ccccc12)C(C)(C)C (centres unmarked)
Result: true (1)

Task: Determine whether this molecule shows No. of intoxications lower than 20 (ties excluded): CCCCCn1c2ccccc2c2c(=O)n(C(C)(C)c3ccccc3)ccc21
Result: true (1)

Task: Could you please tell me whether No. of intoxications recorded for CC(C)C(NC(=O)c1nn(CC2CCCCC2)c2ccccc12)C(N)=O (centres unmarked) is less than 20?
Result: false (0)

Task: Dear reviewer, please state whether CC(C)(C)C(NC(=O)c1nn(CC2CCCCC2)c2ccccc12)C(N)=O (centres unmarked) has No. of intoxications strictly beneath 20.
Result: true (1)

----------
Experiment: risk score from prevalence in routine forensic samples and intoxication cases (G1, PSS, TSS)
Set-up: species or system human
Conditions: G1+G2+G3; higher value = greater toxicological risk
Kindly state G total (risk score) for each of the entries shown.
Reply briefly: the number, and no unit.

Task: Quickly give me recorded G total (risk score) for CC(C)C(NC(=O)c1nn(CC2CCCCC2)c2ccccc12)C(N)=O (stereo not shown)
Result: 7.2

Task: Quickly give me recorded G total (risk score) for C=CCCCn1nc(C(=O)NC(C(=O)OC)C(C)(C)C)c2ccccc21 (stereo not shown)
Result: 6.8

Task: Look up and state reported G total (risk score) for CC(C)(C)C(NC(=O)c1nn(CC2CCCCC2)c2ccccc12)C(N)=O (stereo not shown)
Result: 7.1

Task: Provide measured G total (risk score) value, entry: COC(=O)C(NC(=O)c1nn(CCCCCF)c2ccccc12)C(C)(C)C (stereo not shown)
Result: 6.9

----------
For each record, write down the corresponding Emax.
Molecular target: hCB1 receptor (Homo sapiens)
Sequence (P21554 whole entry): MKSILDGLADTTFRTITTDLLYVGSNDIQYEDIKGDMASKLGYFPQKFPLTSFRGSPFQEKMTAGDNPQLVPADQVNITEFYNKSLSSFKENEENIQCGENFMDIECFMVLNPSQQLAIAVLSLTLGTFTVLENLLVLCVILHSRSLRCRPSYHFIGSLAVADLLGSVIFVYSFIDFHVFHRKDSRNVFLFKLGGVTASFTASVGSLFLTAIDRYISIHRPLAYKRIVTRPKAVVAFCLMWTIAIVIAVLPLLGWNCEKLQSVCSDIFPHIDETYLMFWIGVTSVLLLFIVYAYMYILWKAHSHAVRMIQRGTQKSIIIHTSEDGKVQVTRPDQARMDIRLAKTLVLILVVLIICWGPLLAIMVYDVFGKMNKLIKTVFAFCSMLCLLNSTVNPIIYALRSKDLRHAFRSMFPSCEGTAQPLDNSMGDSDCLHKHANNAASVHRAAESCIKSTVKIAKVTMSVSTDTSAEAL
Assay: functional [35S]GTPγS hCB1 activation assay
Format: biochemical
Details: read-out: [35S]‐GTPγS assay Emax [%] (95% CI)
Numeric only. Scale: %

Task: Retrieve Emax on hCB1 receptor (Homo sapiens); query CC(C)C(NC(=O)c1nn(CC2CCCCC2)c2ccccc12)C(N)=O (centres unmarked)
Result: 124

Task: Using hCB1 receptor (Homo sapiens) as the test system, report measured Emax of CCCCCCC(C)(C)c1ccc([C@@H]2C[C@H](O)CC[C@H]2CCCO)c(O)c1 [CP‐55940, reference compound] .
Result: 96.9

Task: Give Emax only, for CC(C)C(NC(=O)c1nn(Cc2ccc(F)cc2)c2ccccc12)C(N)=O (centres unmarked) , using hCB1 receptor (Homo sapiens) data.
Result: 114

Task: Quote hCB1 receptor (Homo sapiens) Emax for entry COC(=O)C(NC(=O)c1cn(CCCCCF)c2ccccc12)C(C)(C)C (centres unmarked) .
Result: 112

Task: Look up and report Emax, with hCB1 receptor (Homo sapiens) as system, for CC(C)(C)C(NC(=O)c1nn(CC2CCCCC2)c2ccccc12)C(N)=O (centres unmarked)
Result: 124
